Give measured Ratio for each item. Keep answers brief.
Species: Rattus norvegicus
measurement-description: Ratio of CCK-B receptor affinity and CCK-A receptor affinity

Need Ratio, item CC(C)CCN1C(=O)C(NC(=O)Nc2ccccc2)C(=O)N(Cc2ccccc2)c2ccccc21 (configuration not stated)
17

Need Ratio, item O=C(Nc1cccc(Cl)c1)NC1C(=O)N(CC23CC4CC(CC(C4)C2)C3)c2ccccc2N(C2CCCCC2)C1=O (configuration not stated)
22

Need Ratio, item `CC(C)CCN1C(=O)C(NC(=O)Oc2cccc(N(C)C)c2)C(=O)N(CCC(C)C)c2ccccc21`
28

Need Ratio, item CC(C)CCN1C(=O)C(NC(=O)Oc2cccc(N(C)C)c2)C(=O)N(CC23CC4CC(CC(C4)C2)C3)c2ccccc21 (configuration not stated)
209

Need Ratio, item CC(C)CCN1C(=O)C(NC(=O)Oc2ccccc2)C(=O)N(CC23CC4CC(CC(C4)C2)C3)c2ccccc21 (configuration not stated)
42

Need Ratio, item `CC(C)CCN1C(=O)C(NC(=O)Nc2cccc(N(C)C)c2)C(=O)N(CCC(C)C)c2ccccc21`
32

Need Ratio, item O=C(NC1C(=O)N(CC23CC4CC(CC(C4)C2)C3)c2ccccc2N(C2CCCCC2)C1=O)Oc1ccccc1 (configuration not stated)
26

Need Ratio, item O=C(Nc1ccccc1)NC1C(=O)N(CC23CC4CC(CC(C4)C2)C3)c2ccccc2N(C2CCCCC2)C1=O (configuration not stated)
234

Need Ratio, item `CC(C)CCN1C(=O)C(NC(=O)Nc2ccccc2)C(=O)N(CCC(C)C)c2ccccc21`
26

Need Ratio, item CC(C)CCN1C(=O)C(NC(=O)Nc2ccccc2)C(=O)N(CC23CC4CC(CC(C4)C2)C3)c2ccccc21 (configuration not stated)
209

Need Ratio, item CC(C)CCN1C(=O)C(NC(=O)Nc2cccc(N(C)C)c2)C(=O)N(CC23CC4CC(CC(C4)C2)C3)c2ccccc21 (configuration not stated)
170

Need Ratio, item O=C(Nc1ccccc1)NC1C(=O)N(CC23CC4CC(CC(C4)C2)C3)c2ccccc2N(CC23CC4CC(CC(C4)C2)C3)C1=O (configuration not stated)
58
